Test system: MS2 coat protein
assay.details: apparent Kd, MS2 coat protein; higher = weaker binding; RNA-MaP array
reported.conditions: ligand present: flavin mononucleotide; designed as: OFF switch for flavin mononucleotide
reported.property: apparent Kd (nM)

GGAGUUCUAGGAUAUAAUUCGUGGUACAUGAGGAUCACCCAUGUCGCUGAUGCAUCGCCUUUAGAAGGAGAGAUCU	9.49
AAAGGUUGAGGAUAUCAUCCUCCAAACAUGAGGAUCACCCAUGUUGAUCUUCACGUACGAUGAGAAGGCAACACCU	683
UAUACUACUGAGGAUAUCCAAUCCCAGAAACAAGGAGAAGGCAGUACAUGAGGAUCACCCAUGUUCCUCGACAU	127
GCGAGGAGGCAGAAGGACUAAAACACGCUACAAGUAGGAUAUGCAUCCUGCACACAUGAGGAUCACCCAUGUAGAUCCUAUCGC	151
CGGCAGAAAGUGAGGAUAUCGGUUGUAUGAGGAGACGAGAAGGCACAUGAGGAUCACCCAUGUUAGUAGUCCAC	8.8
UAGUAGUAAGGAUAUGCGGCACCGACGCCUCCGAACCGCGGGCAGAAGGUACAUGAGGAUCACCCAUGUGGGUA	116
AACAGAAGACAGGAUAUUACUUAACCAGUAUUGUAAGAAGGGUCGACAUGAGGAUCACCCAUGUGAUCAUACUG	47
GGACAAGAAGAGAAGGGCUUACCAAACCUCAACAUGAGGAUCACCCAUGUCAAAGUGGAAGCAUAGCAGGAUAUCUAACAGCGC	7.72
GAACAAUGCCUAGGAUAUCUUACGAUUGAAAACAGAGAAGGAGGGACCGAACAUGAGGAUCACCCAUGUAGAUGUGGGACGUGG	84.5
GACAUGGGACAGAAGGCGCGUCACAUUUUUAUGCGAGGAUAUGUCACUACAUGAGGAUCACCCAUGUGAGUUGGGAUCUCGAAA	64.1
GUCUGGAUGUAGGAUAUGUGUCCGUGCUAGGGUACAGAAGGACAGACAUGAGGAUCACCCAUGUGGAUCAACCG	38.2
AUAGUGUAAGGAUAUGUAGAGAGCUAGAAAAUACAAACAAUACAGAAGGUACAUGAGGAUCACCCAUGUGAUUG	26.3
GCUGCCUGGACAUGAGGAUCACCCAUGUGGACAAUACUGGCUUAGGAUAUUUGAUUGAAGUUUGGAAAGAAGGAAGCAUACAGC	8.14
GGUUUUUCUGUUAGGAUAUUUCAUGACAGGCGAUGAAAGAAGGAACAUGAGGAUCACCCAUGUGUUUGAGAUAA	10.6
ACGGCAUGGAAGAAGGAGUACAUGAGGAUCACCCAUGUAGGGUAGCGCGUCCACAUCCAAUAAGACUAGGAUAUUCUUGCAGAU	83.2
UUCAUUUUCUAGGAUAUGUACCAGAAAAUAGUUACAGAAGGAGAGACAUGAGGAUCACCCAUGUUGGCAACAGC	11.6
ACUCAUGCAAAGGAUAUAACAGUUACAGACUGAUUAGAAGGUUGGACAUGAGGAUCACCCAUGUACGACGCGGU	28.4
AGAUUUGCAGGAUAUACCGGUACAAACAUGAGGAUCACCCAUGUAACGCAUGGUCAGUGAGUAGAAGGGCACGUAG	24
ACGCGUUCACAGAAGGCCUACAAAAUUACAUUAGGAGGAUAUGUUACAUGAGGAUCACCCAUGUCAUGGCUGUGUCUCGGUAUC	41.4
AAUCGCCGUAAGAAGGCCACAUAAACAUGAGGAUCACCCAUGUACAGGCGACCUUUAUAUAAUGUGGAGGAUAUUAACUGCUUC	90.5
CGCCCGUACUCAGGAUAUCGAAGUACGAGCCAAAUUAUGUCGGACAUGAGGAUCACCCAUGUGGGCGAGAAGGGAGAACGUGCG	16.4
CACGAUCGUGAAGGAUAUCGACAUGAGGAUCACCCAUGUUACUCUUACAUCUAUGGUUCAAGUGCCGAGAAGGUCACAGAGGCA	18
CGUAUACAUGAGGAUCACCCAUGUACUCCCGUGUAAGGCGAGAAGGAUAUGUUCCCGGCUACUUAACAGAAGGUCUUGGCGCUU	11.2
GGUGAUUUCCGACGUUUACAUGAGGAUCACCCAUGUAGGUAGAAGGAUAUGUGUAAAAUUGAUAAACAGAAGGUCUUCCGAAUA	49.3
AGUCUUCUCGUAAGGAUAUUUAGGAAUUCAUCUCCAAAGAAGGUACAUGAGGAUCACCCAUGUGAAGGGCUUUU	24.8
